Value source: patent US20120039802A1

Target: T1, cMet-Fc fusion protein (extracellular domain of the cMet receptor expressed as an Fc-fusion protein) (human, UniProt P08581 25-932)
T1 construct: extracellular domain; also called soluble cMet-Fc-fusion protein; soluble cMet receptor; not shown: Fc part
T1 sequence (P08581 25-932): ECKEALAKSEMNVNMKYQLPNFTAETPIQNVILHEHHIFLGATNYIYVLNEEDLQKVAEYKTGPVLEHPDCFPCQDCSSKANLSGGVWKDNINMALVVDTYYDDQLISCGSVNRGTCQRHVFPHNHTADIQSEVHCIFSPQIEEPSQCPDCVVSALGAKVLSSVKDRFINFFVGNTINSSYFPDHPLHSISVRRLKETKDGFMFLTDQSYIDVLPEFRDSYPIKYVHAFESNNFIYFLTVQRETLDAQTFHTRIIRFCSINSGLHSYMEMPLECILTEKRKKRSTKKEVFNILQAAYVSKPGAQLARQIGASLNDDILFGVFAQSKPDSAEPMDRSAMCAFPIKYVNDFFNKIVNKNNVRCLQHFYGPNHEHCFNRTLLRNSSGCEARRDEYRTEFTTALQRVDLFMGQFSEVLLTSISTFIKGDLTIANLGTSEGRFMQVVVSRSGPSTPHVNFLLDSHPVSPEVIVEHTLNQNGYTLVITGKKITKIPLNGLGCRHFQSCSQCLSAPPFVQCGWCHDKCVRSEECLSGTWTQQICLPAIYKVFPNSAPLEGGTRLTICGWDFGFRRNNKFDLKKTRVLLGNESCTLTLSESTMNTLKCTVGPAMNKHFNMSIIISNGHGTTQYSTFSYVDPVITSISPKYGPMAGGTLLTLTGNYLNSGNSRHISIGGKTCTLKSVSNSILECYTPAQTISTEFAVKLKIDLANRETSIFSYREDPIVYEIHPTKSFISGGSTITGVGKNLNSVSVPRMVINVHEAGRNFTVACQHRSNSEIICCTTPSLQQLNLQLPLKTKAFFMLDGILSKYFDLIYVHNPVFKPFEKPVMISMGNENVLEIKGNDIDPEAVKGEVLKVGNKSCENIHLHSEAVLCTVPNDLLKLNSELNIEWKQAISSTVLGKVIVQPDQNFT
Experiment: phage ELISA, cMet-Fc vs TRAIL-Fc
measurement type: Protein ELISA (fold over background) (fold)

binder | reported
AGHYWCAGPPTFICMGPGT [550-C09 peptide-displaying phage (SEQ ID NO: 062)] | 10.2
AGYYGCKGPPTFECQWMGT [330-F05 peptide-displaying phage (SEQ ID NO: 049)] | 13.8
AGGWECTGPPWFQCGYYGT [334-C08 peptide-displaying phage (SEQ ID NO: 067)] | 8
AGHAWCSGPPRFECWPPGT [329-D02 peptide-displaying phage (SEQ ID NO: 061)] | 3.2
AGLPKCSGPPWFSCYYGGT [545-A09 peptide-displaying phage (SEQ ID NO: 066)] | 13.5
AQHWDYDSGSDFWFPVFFLEHH [79-B02 peptide-displaying phage (SEQ ID NO: 475)] | 3.5
AGEIFCVGPPTFTCMWTGT [552-G09 peptide-displaying phage (SEQ ID NO: 096)] | 9.7
AGHTICQHKALGCPANGT [465-C07 peptide-displaying phage (SEQ ID NO: 041)] | 3.1
AQFPLEFDVPNFSYHWLVSFNP [118-C07 peptide-displaying phage (SEQ ID NO: 460)] | 5.6
GDYYQCQFSKDMYSERCWPYDP [316-F08 peptide-displaying phage (SEQ ID NO: 397)] | 7
AQYDTWVFQFIHEVPGELVAMQ (also called linear isolate 94-E08) [94-E08 peptide-displaying phage (SEQ ID NO: 454)] | 8.9
AGVWICRVWDDECFFQGT [376-E05 peptide-displaying phage (SEQ ID NO: 020)] | 3.7
AQDNTADQMFNGFHVLAMYMV [117-E09 peptide-displaying phage (SEQ ID NO: 481)] | 3.3
AQHMDPAEWDWFIRIYSPVVNP [149-E06 peptide-displaying phage (SEQ ID NO: 487)] | 3
GSYYDCREFQCNKPAP [465-A06 peptide-displaying phage (SEQ ID NO: 002)] | 4.4
